# testTarget: human orexin-1 receptor (Homo sapiens (Human), UniProt O43613)
# Sequence (O43613 whole entry): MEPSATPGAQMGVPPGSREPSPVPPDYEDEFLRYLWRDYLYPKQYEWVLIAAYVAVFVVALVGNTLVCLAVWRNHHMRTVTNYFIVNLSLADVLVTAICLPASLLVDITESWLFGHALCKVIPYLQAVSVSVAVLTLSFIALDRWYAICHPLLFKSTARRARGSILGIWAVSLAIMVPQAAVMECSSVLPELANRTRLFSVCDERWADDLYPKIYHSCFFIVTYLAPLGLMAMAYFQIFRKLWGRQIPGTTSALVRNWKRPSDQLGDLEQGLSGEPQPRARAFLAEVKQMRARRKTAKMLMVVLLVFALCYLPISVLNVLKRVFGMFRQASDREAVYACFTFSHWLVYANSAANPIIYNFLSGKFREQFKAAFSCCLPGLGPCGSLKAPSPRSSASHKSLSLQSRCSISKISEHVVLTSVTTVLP
# protocolDescription: In vitro assay: intracellular calcium measurements (FLIPR), antagonistic activity
# experimentalParameters: CHO cells expressing human orexin-1 receptor, orexin-A agonist, geometric mean, read-out: IC50 Ox1
pIC50: −log10 of the molar value.
readoutLabel: pIC50

INSERT INTO measurements (compound, readoutlabel, recordedresult) VALUES
  ('COc1cc2nc([C@]3(C)CCCN3C(=O)c3nc(C)sc3-c3ccc(F)cc3)[nH]c2cc1OC', 'pIC50', 7.51),
  ('CO[C@@H]1C[C@@H](c2nc3ccc(Cl)c(C)c3[nH]2)N(C(=O)c2ccc(C)cc2-n2nccn2)C1', 'pIC50', 7.02),
  ('Cc1cc2nc([C@]3(C)CCCN3C(=O)c3ccccc3-c3ccc(F)cc3)[nH]c2cc1C', 'pIC50', 7.04);

A = C=C1CC(c2nc3c(C)cccc3[nH]2)N(C(=O)c2cc(C)sc2-c2ccc(C)c(C)c2)C1 (stereo not shown)
B = CO[C@@H]1C[C@@H](c2nc3ccc(Cl)c(C)c3[nH]2)N(C(=O)c2cc(C(F)(F)F)ccc2-n2nccn2)C1
C = COc1cccc(C#Cc2ccccc2C(=O)N2CC[C@H](C)[C@H]2c2nc3cc(Cl)c(C)cc3[nH]2)c1
D = C=C1C[C@@H](c2nc3cc(OC)ccc3[nH]2)N(C(=O)c2nc(C)sc2-c2cccc(C(F)(F)F)c2)C1
In: In this exercise, place the 4 compounds in ascending sequence of their recorded pIC50. Response field: labels, in requested order.
Out: B, D, C, A

====

# testTarget: human orexin-1 receptor (Homo sapiens (Human), UniProt O43613)
# protocolDescription: In vitro assay: intracellular calcium measurements (FLIPR), antagonistic activity
# Type: cell-based
# experimentalParameters: CHO cells expressing human orexin-1 receptor, orexin-A agonist, geometric mean, read-out: IC50 Ox1
pIC50: −log10 of the molar value.
readoutLabel: pIC50

INSERT INTO results (compound, recordedresult) VALUES
  ('C=C1C[C@@H](c2nc3cc(C(F)(F)F)c(Cl)cc3[nH]2)N(C(=O)c2nc(C)sc2-c2ccc(C)c(C)c2)C1', 7.77),
  ('C=C1CC(c2nc3cc(SC)ccc3[nH]2)N(C(=O)c2cc(C)sc2-c2ccc(C)c(C)c2)C1 (stereo not drawn)', 8.00),
  ('Cc1ccc(-n2cccn2)c(C(=O)N2CCC[C@@]2(C)c2nc3cc(C(F)(F)F)ccc3[nH]2)c1', 7.62),
  ('Cc1ccc(-c2cccc(F)c2)c(C(=O)N2CCC[C@@]2(C)c2nc3cc(C(F)(F)F)ccc3[nH]2)c1', 8.00),
  ('Cc1ccc(-n2nccn2)c(C(=O)N2CC[C@H](C)[C@H]2c2nc3cccc(C)c3[nH]2)c1', 7.54);

I = C=C1C[C@@H](c2nc3ccc(OC)cc3[nH]2)N(C(=O)c2cc(Cl)ccc2-n2nccn2)C1
II = Cc1cc2[nH]c([C@@H]3[C@@H](C)CCN3C(=O)c3c(-c4ccccn4)ccc(C)c3F)nc2cc1Cl
III = C=C1CC(c2nc3c(C)c(C)ccc3[nH]2)N(C(=O)c2nc(C3CC3)sc2-c2cccc(C)c2)C1 (racemic)
IV = CSc1cccc2nc([C@@H]3CCCN3C(=O)c3ccc(C)cc3-n3nccn3)[nH]c12
In: Place the items in sequence of falling pIC50. Response field: labels, in requested order.
Out: III, II, IV, I

a = Cc1cc2[nH]c([C@@H]3[C@@H](C)CCN3C(=O)c3cc(F)ccc3-c3ncccn3)nc2cc1Cl
b = C=C1C[C@@H](c2nc3cccc(C)c3[nH]2)N(C(=O)c2nc(C)sc2-c2ccc(Br)cc2)C1
c = Cc1ccc(-n2nccn2)c(C(=O)N2CC[C@H](C)[C@H]2c2nc3cc(C)c(C)cc3[nH]2)c1
In: In this exercise, place the 3 compounds in ascending sequence of their recorded pIC50. Response field: labels, in requested order.
Out: b, a, c
(b: 7.26, a: 7.64, c: 7.92)

P = Cc1nc(C(=O)N2CCCC2c2nc3c(Br)cc(F)cc3[nH]2)c(-c2cccc(Cl)c2)s1 (stereo not drawn)
Q = COc1ccc2nc([C@@H]3C[C@@H](OC)CN3C(=O)c3cc(F)ccc3-n3nccn3)[nH]c2c1
R = COc1cc2nc([C@@H]3[C@@H](C)CCN3C(=O)c3cc(C)ccc3-n3cccn3)[nH]c2cc1OC
In: In this exercise, place the 3 compounds in ascending sequence of their recorded pIC50. Response field: labels, in requested order.
Out: Q, R, P
(Q: 5.41, R: 7.23, P: 7.52)
